- System: ASAU001 (laboratory strain of S. aureus, ATCC29213)
- ASSAY TEXT: MIC broth microdilution, ASAU001
- Assay type: cell-based
- RECORDED CONDITIONS: Staphylococcus aureus, ATCC29213, read-out: MIC ASAU001
As shown below, each of these compounds has a reported MIC value.

# COMPOUND, MIC
rows = [
    ("CC(O)[C@H](NS(=O)(=O)c1ccc(C#Cc2ccc(CN3CCOCC3)cc2)cc1)C(=O)NO (stereo partly shown)", "> 64 µg/mL"),
    ("CC(C)(O)[C@H](NC(=O)c1ccc(C#C/C=C/c2ccc(CO)cc2)cc1)C(=O)NO", "16 to 64 µg/mL"),
    ("C[C@@H](N)[C@H](NC(=O)c1ccc(C#CC2CC2)cc1)C(=O)NO", "16 to 64 µg/mL"),
    ("C[C@@H](N)[C@H](NC(=O)c1ccc(CCc2ccc(CN3CCOCC3)cc2)cc1)C(=O)NO", "16 to 64 µg/mL"),
    ("C[C@@H](O)[C@H](NC(=O)c1ccc(/C=C\\C#Cc2ccc(CN3CCOCC3)cc2)cc1)C(=O)NO [Example 30-12b]", "> 64 µg/mL"),
    ("C[C@@H](N)[C@H](NC(=O)c1ccc(C#C/C=C/c2ccc(CO)cc2)cc1)C(=O)NO", "16 to 64 µg/mL"),
    ("C[C@@H](N)[C@H](NC(=O)c1ccc(C#CC#Cc2ccc(Cl)cc2)cc1)C(=O)NO", "> 64 µg/mL"),
]

====

As shown below, each of these compounds has a reported MIC value.
- System: AABA1060 (clinical isolate of Acinetobacter baumannii)
- ASSAY TEXT: MIC broth microdilution, AABA1060
- Type: cell-based
- RECORDED CONDITIONS: Acinetobacter baumannii, read-out: MIC AABA1060
- Experimental: Bacterial isolates were cultivated from −70° C. frozen stocks by overnight passages at 35° C. in ambient air on Mueller-Hinton agar (Beckton Dickinson, Franklin Lakes, N.J.). […] Minimum Inhibitory Concentrations (MICs) were determined by the broth microdilution method in accordance with the Clinical and Laboratory Standards Institute (CLSI) guidelines. […]
RESULT TYPE: MIC

# INPUT SMILES, RESULT
records = [
    ("CC(C)(O)[C@H](NC(=O)c1ccc(/C=C/C#Cc2ccc(CO)cc2)cc1)C(=O)NO", "< 2 µg/mL"),
    ("CN(C)CC(=O)NC[C@H](NC(=O)c1ccc(C#C/C=C/c2ccc(CN3CCOCC3)cc2)cc1)C(=O)NO", "16 to 64 µg/mL"),
    ("CO[C@H](C)[C@H](NC(=O)c1ccc(/C=C/C#Cc2ccc(CNC3CC3)cc2)cc1)C(=O)NO", "2 to 16 µg/mL"),
    ("C[C@@H](N)[C@H](NC(=O)c1ccc(C#CC#Cc2ccccc2Cl)cc1)C(=O)NO", "2 to 16 µg/mL"),
    ("C[C@@H](N)[C@H](NC(=O)c1ccc(C#Cc2ccc(CNC3CCCC3)cc2)cc1)C(=O)NO", "16 to 64 µg/mL"),
    ("CNC(=O)[C@@H](NC(=O)c1ccc(C#Cc2ccc(CN3CCOCC3)cc2)cc1)[C@@H](C)N", "> 64 µg/mL"),
    ("C[C@@H](O)[C@H](NC(=O)c1ccc(SCc2ccc(CN3CCOCC3)cc2)cc1)C(=O)NO", "> 64 µg/mL"),
]
